- Tested on: HOP-92 NSCLC
- Experimental Protocol: NCI-60 one-dose screen, 48 h
- Measurement Setup: 10 µM unless noted
The panel holds about 83,000 compounds, 20% with a hit somewhere; the sample as a whole holds those more often. Calls of active or inactive are those of the source. The calls were made as follows: active = growth percent below 10; inactive = the rest.
Would you mind answering with one of these outcomes? active, inactive

>  <Compound>
CC1(C)OCC(COC(c2ccccc2)(c2ccccc2)c2ccccc2)O1 (stereo not given)

>  <Discrete Label>
inactive

$$$$

Exercise: Check the results log: what was the call for CCC1C[N+]2=C(c3cc(OC)c(OC)cc3CC2)c2c1cc1n2CCc2cc(OC)c(OC)cc2-1 (stereo not given) ?
Key: active

Exercise: # repeat for CN(C)c1ccc(C(C#N)(c2ccccc2)c2ccc(N(C)C)cc2)cc1
Key: inactive

Exercise: # repeat for O=C1c2ccccc2Cc2cccc(Cl)c21
Key: inactive

Exercise: # repeat for Oc1c(Cl)cc(Cl)cc1C=NCC1CCC(CN=Cc2cc(Cl)cc(Cl)c2O)CC1 (stereo not given)
Key: inactive

Exercise: # repeat for CCCCN(CCCC)CCCCCCCCCCO
Key: inactive

Exercise: # repeat for c1ccc(-c2cccc(-c3ccccn3)n2)nc1
Key: inactive

Exercise: # repeat for CN(C)CCSC1=Nc2ccc(Cl)cc2C(c2ccccc2Cl)N(C)C1 (stereo not given)
Key: inactive

====

- Test system: SF-268 CNS
- Experimental Protocol: NCI-60 one-dose screen, 48 h (100 = growth as untreated, 0 = no growth, -100 = all killed)
- Measurement Setup: 10 µM unless noted
About 83,000 compounds went through this panel and 20% of them were active in at least one assay; those are over-represented in the sample as a whole.
The reader will find reported growth values listed item by item below.
Your answer is read as %, so omit the unit and give the number.

Reference set (6 entries):
>  <Compound>
CCCCCCCCCCCC1=NCCCN1CCCC

>  <System>
SF-268 CNS

>  <Recorded Metric>
growth

>  <Value>
101

$$$$
>  <Compound>
O=[N+]([O-])c1ccc([I+]c2ccccc2)cc1

>  <System>
SF-268 CNS

>  <Recorded Metric>
growth

>  <Value>
-69.7

$$$$
>  <Compound>
CC(C)c1ccc(C(=O)OC2CCCC2)cc1

>  <System>
SF-268 CNS

>  <Recorded Metric>
growth

>  <Value>
95.1

$$$$
>  <Compound>
S=C(S)OCN1CCOCC1

>  <System>
SF-268 CNS

>  <Recorded Metric>
growth

>  <Value>
97.9

$$$$
>  <Compound>
Cc1cc2cccnc2c2ncccc12

>  <System>
SF-268 CNS

>  <Recorded Metric>
growth

>  <Value>
15.9

$$$$
>  <Compound>
O=C(Cc1nc2cc(Cl)c(Cl)cc2nc1CC(=O)c1ccccc1)c1ccccc1

>  <System>
SF-268 CNS

>  <Recorded Metric>
growth

>  <Value>
79.2

$$$$

Exercise: Notebook entry, SF-268 CNS assay: growth of O=C1C=CC(O)=CC1=P(c1ccccc1)(c1ccccc1)c1ccccc1 = ?
Key: 100

Exercise: # repeat for O=C1c2ccccc2Cc2cccc(Cl)c21
Key: 93

Exercise: # repeat for CCC(=O)c1cc([N+](=O)[O-])c(Br)s1
Key: 96.6

Exercise: # repeat for CC1C(c2ccccc2)OCCN1C(=S)Nc1ccc(S(=O)(=O)N2CCCCC2)cc1 (stereo unspecified)
Key: 109

Exercise: # repeat for O=C(Nc1ccc(Cl)c(Cl)c1)OCc1ccco1
Key: 47.8

Exercise: # repeat for Cc1ccc(Nc2ccc(O)c3c2C(=O)c2c(O)ccc(Nc4ccc(C)cc4)c2C3=O)cc1
Key: 114

Exercise: # repeat for CCOc1cc(F)c([N+](=O)[O-])cc1[N+](=O)[O-]
Key: 77.6

Exercise: # repeat for CC(C)(C)c1ccc(CCO)cc1
Key: 104

Exercise: # repeat for Oc1c(Cl)cc(Cl)cc1C(c1cc(Cl)cc(Cl)c1O)C(Cl)(Cl)Cl
Key: 11.6

Exercise: # repeat for CCCOS(=O)(=O)c1ccccc1
Key: 106

====

- Test system: UO-31 renal
- Experimental Protocol: NCI-60 one-dose screen, 48 h (100 = growth as untreated, 0 = no growth, -100 = all killed)
- Measurement Setup: 10 µM unless noted
About 83,000 compounds went through this panel and 20% of them were active in at least one assay; those are over-represented in the sample as a whole.
Please map values of growth to classes as shown: category 1 = under 40%, category 2 = from 40% up to 80%, category 3 = 80% and over

These recorded examples may help you get a feel for the data.
>  <Compound>
CC(/C=N/NC(N)=S)Cc1ccc(C(C)C)cc1 (stereo unspecified)

>  <Discrete Label>
category 2

$$$$
>  <Compound>
O=[n+]1c2ccccc2n([O-])c2cc(Cl)ccc21

>  <Discrete Label>
category 2

$$$$
>  <Compound>
CC1CC(C)(C)OB(OC(C)CC(C)(C)OB2OC(C)CC(C)(C)O2)O1 (stereo unspecified)

>  <Discrete Label>
category 3

$$$$
>  <Compound>
COc1cc(-c2ccc(-[n+]3nc(-c4ccc([N+](=O)[O-])cc4)nn3-c3ccc([N+](=O)[O-])cc3)c(OC)c2)ccc1-[n+]1nc(-c2ccc([N+](=O)[O-])cc2)nn1-c1ccc([N+](=O)[O-])cc1

>  <Discrete Label>
category 1

$$$$

Exercise: Returns: class label. Input: COc1cccc2c1C(=O)c1c(O)c3c(c(O)c1C2=O)C[C@@](O)(C(=O)CO)C[C@@H]3OC1CC(OC(C)=O)C(OC(C)=O)C(C)O1 (stereo partly specified)
Key: category 1

Exercise: # repeat for O=C1C=C(Cl)C(=O)c2ccccc21
Key: category 2

====

- Tested on: MOLT-4 leukemia
- Experimental Protocol: NCI-60 one-dose screen, 48 h (100 = growth as untreated, 0 = no growth, -100 = all killed)
- Measurement Setup: 10 µM unless noted
This is part of a sample that, as a whole, favours compounds with a hit. Of some 83,000 tested, about 20% had one in any assay.
Recorded Metric: growth (%)
Your answer is read as %, so omit the unit and give the number.

>  <Compound>
Nc1ccc(-c2ccc(N)c(S(=O)(=O)O)c2)cc1S(=O)(=O)O

>  <Measurement Units>
%

>  <growth>
131

$$$$
>  <Compound>
O=[N+]([O-])c1ccc(C2N(Cc3ccc(Cl)cc3)CCN2Cc2ccc(Cl)cc2)cc1

>  <Measurement Units>
%

>  <growth>
80.3

$$$$
>  <Compound>
NCCCN(CCCN)CCCNCc1c2ccccc2c(CNCCCN(CCCN)CCCN)c2ccccc12

>  <Measurement Units>
%

>  <growth>
98.8

$$$$
>  <Compound>
Cn1ccc(=Nc2ccc(NC(=O)c3ccc(N=c4ccn(C)c5ccc([N+](=O)[O-])cc45)cc3)cc2)cc1

>  <Measurement Units>
%

>  <growth>
126

$$$$
>  <Compound>
N#CC1c2ccccc2C=CN1C(=O)CCCl (configuration not stated)

>  <Measurement Units>
%

>  <growth>
81.3

$$$$
>  <Compound>
N#CC(I)CS(=O)(=O)c1ccccc1 (configuration not stated)

>  <Measurement Units>
%

>  <growth>
88.9

$$$$
>  <Compound>
CN(C)c1ccc(/C=C/c2sc3ccc4ccccc4c3[n+]2C)cc1

>  <Measurement Units>
%

>  <growth>
-26.7

$$$$
>  <Compound>
NNc1ccc(Cl)cc1Cl

>  <Measurement Units>
%

>  <growth>
52.7

$$$$

Exercise: // returns reported growth for input CCCOC(=O)c1nc(N(CC2CCCCC2)C(=O)NC)sc1/N=C/c1ccccc1
Key: 3.07

====

- Test system: SK-OV-3 ovarian
- Experimental Protocol: NCI-60 one-dose screen, 48 h (100 = growth as untreated, 0 = no growth, -100 = all killed)
- Measurement Setup: 10 µM unless noted
Compounds without any hit were thinned out: in the full panel of roughly 83,000, 20% have a hit. Activity calls are given as the source filed them. The calls were made as follows: active = growth percent below 10; inactive = the rest.
Recorded Metric: growth

Reference set (3 entries):
>  <Molecule>
Cc1cc(Br)c2nsnc2c1[N+](=O)[O-]

>  <Recorded Metric>
growth

>  <Value>
91.3% (inactive)

$$$$
>  <Molecule>
CCOC(=O)c1cc(CC)sc1NC(=O)CC(C)=O

>  <Recorded Metric>
growth

>  <Value>
84.6% (inactive)

$$$$
>  <Molecule>
Nc1ccc(C(=O)/C=C/c2ccccc2)cc1

>  <Recorded Metric>
growth

>  <Value>
110% (inactive)

$$$$

Exercise: // returns reported growth for input Clc1ccc(-n2ncc3c(NCCCN4CCOCC4)ncnc32)cc1
Key: 93.1% (inactive)

Exercise: # repeat for O=C(Cc1nc2cc(Cl)c(Cl)cc2nc1CC(=O)c1ccccc1)c1ccccc1
Key: 77.4% (inactive)

Exercise: # repeat for Cc1cc(C(=O)c2ccc(Cl)cc2)ccc1O
Key: 110% (inactive)

Exercise: # repeat for Oc1ccc2c(c1)CCc1ccccc1-2
Key: 105% (inactive)

Exercise: # repeat for Oc1ccc(Nc2ccc3ccccc3c2)cc1
Key: 89.3% (inactive)
